- System tested: Human GPR119 (Homo sapiens, UniProt Q8TDV5)
- Construct: host or cells: HEK293 (ATCC)
- Sequence (Q8TDV5 whole entry): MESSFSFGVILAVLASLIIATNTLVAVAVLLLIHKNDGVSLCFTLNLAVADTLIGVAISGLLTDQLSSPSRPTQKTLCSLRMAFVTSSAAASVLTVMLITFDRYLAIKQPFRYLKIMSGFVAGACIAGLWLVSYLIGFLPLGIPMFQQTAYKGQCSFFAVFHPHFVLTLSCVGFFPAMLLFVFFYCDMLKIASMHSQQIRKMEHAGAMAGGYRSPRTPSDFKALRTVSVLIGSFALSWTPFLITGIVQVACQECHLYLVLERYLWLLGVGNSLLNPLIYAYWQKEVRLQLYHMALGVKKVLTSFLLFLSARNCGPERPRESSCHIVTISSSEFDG
- Assay name: Human GPR119 activation assay (cAMP, HTRF)
- Type: cell-based
- Recorded conditions: 1 h; 10 nM; HEK293 cells transiently expressing human GPR119; relative to maximum effect of OEA; read-out: hGPR119 activation ability (cAMP assay) Relative Response % vs OEA
Measured quantity: Emax at 0.01 µM (%)

molecule="COc1cnc(N2CCC(CCCOc3cc(F)c(-c4noc(C(C)C)n4)c(F)c3)CC2)nc1 [Example 26]" units=% measured_result=165
molecule="CCC(C)c1nc(-c2c(F)cc(OCCCC3CCN(c4ncc(-c5noc(CC(C)C)n5)cn4)CC3)cc2F)no1 (stereo not shown) [Example 33]" units=% measured_result=108

P: COCc1nc(-c2c(F)cc(OCCCC3CCN(c4ncc(-c5noc(CC(C)C)n5)cn4)CC3)cc2F)no1 [Example 34]
Q: CCCCCc1cnc(N2CCC(CCCOc3cc(F)c(-c4noc(C(C)C)n4)c(F)c3)CC2)nc1 [Example 24]
Request: When the recorded Emax at 0.01 µM values are compared, which is smaller: that of P or that of Q ? Which one? Tell me its label.
Result: P

* * *

- System tested: Human GPR119 (Homo sapiens, UniProt Q8TDV5)
- Construct: host or cells: HEK293 (ATCC)
- Assay name: Human GPR119 activation assay (cAMP, HTRF)
- Format: cell-based
- Recorded conditions: 1 h; 1 nM; HEK293 cells transiently expressing human GPR119; relative to maximum effect of OEA; read-out: hGPR119 activation ability (cAMP assay) Relative Response % vs OEA
Measured quantity: Emax at 0.001 µM (%)

Would you please look over these solved cases?
smiles_string=CC(C)Cc1nc(-c2cnc(N3CCC(CCCOc4cc(F)c(-c5noc(C(C)C)n5)c(F)c4)CC3)nc2)no1 measured_result=201
smiles_string=CCc1cnc(N2CCC(CCCOc3cc(F)c(C4=NCCO4)c(F)c3)CC2)nc1 measured_result=50.7

A: CCc1cnc(N2CCC(CCCOc3cc(F)c(C4=N[C@H](C)CO4)c(F)c3)CC2)nc1
B: CC(C)c1noc(N2CCC(CCCOc3cc(F)c(C4=NC[C@H](C)O4)c(F)c3)CC2)n1
Request: When the recorded Emax at 0.001 µM values are compared, which is smaller: that of A or that of B ? Which one? Tell me its label.
Result: A

* * *

- System tested: Human GPR119 (Homo sapiens, UniProt Q8TDV5)
- Construct: host or cells: HEK293 (ATCC)
- Assay name: Human GPR119 activation assay (cAMP, HTRF)
- Assay type: cell-based
- Recorded conditions: 1 h; 1 nM; HEK293 cells transiently expressing human GPR119; relative to maximum effect of OEA; read-out: hGPR119 activation ability (cAMP assay) Relative Response % vs OEA
Measured quantity: Emax at 0.001 µM (%)

smiles_string=CC(C)c1noc(N2CCC(CCCOc3cc(F)c(-c4noc(CO)n4)c(F)c3)CC2)n1 measured_quantity="Emax at 0.001 µM" units=% measured_result=74.4

1: Cc1nnc(-c2c(F)cc(OCCCC3CCN(c4nc(C(C)C)no4)CC3)cc2F)o1
2: CCc1cnc(N2CCC(CCCOc3cc(F)c(-c4nnc(C(C)C)s4)c(F)c3)CC2)nc1
3: COc1cnc(N2CCC(CCCOc3cc(F)c(-c4noc(C(C)C)n4)c(F)c3)CC2)nc1
4: CC(C)Oc1cnc(N2CCC(CCCOc3cc(F)c(-c4noc(C(C)C)n4)c(F)c3)CC2)nc1
5: CCc1cnc(N2CCC(CCCOc3cc(F)c(-c4noc(CO)n4)c(F)c3)CC2)nc1
Request: Please list these in order of increasing Emax at 0.001 µM. Thank you! Show the ranking through the labels, in the order asked for.
Result: 4, 3, 5, 1, 2

A: CCCc1noc(N2CCC(CCCOc3cc(F)c(-c4nnc(C)o4)c(F)c3)CC2)n1
B: CCc1nnc(-c2c(F)cc(OCCCC3CCN(c4cnc(Cl)cn4)CC3)cc2F)o1
Request: Sorting by Emax at 0.001 µM in descending order, would A or B appear first? Which one? Tell me its label.
Result: A
